experiment: Rat pharmacokinetics; assay type: in vivo, Sprague-Dawley rats; settings: Sprague-Dawley, plasma
half-life values for the compounds below.
endpoint.name: half-life (h)

Cc1nc(C)n(-c2ccc(Nc3cc(-c4ccn(C)n4)c(Cl)cn3)cc2)n1 [Compound 15] :: 1.3
Cn1ccc(-c2cc(Nc3ccc(-n4cnc(N5CCOCC5)n4)cc3)ncc2Cl)n1 [Compound 16] :: 6.5
Cc1ccc(-c2ncn(-c3ccc(Nc4cc(-c5ccn(C)n5)c(F)cn4)cc3)n2)cn1 [Compound 20] :: 2.3
Cn1ccc(-c2cc(Nc3ccc(-n4cnc(-c5ccccn5)n4)cc3)ncc2F)n1 [Compound 21] :: 3.4
Cc1nc(C)n(-c2ccc(Nc3cc(-c4nn(C)cc4-c4ccc(F)cc4)ccn3)cc2)n1 [Compound 37] :: 1.5

----------
experiment: Rat pharmacokinetics; assay type: in vivo, Sprague-Dawley rats; settings: Sprague-Dawley, plasma, iv, 1 mg/kg
Parameter clearance: see the listing below.
endpoint.name: clearance (mL/min/kg)

Cc1nc(C)n(-c2ccc(Nc3cc(-c4ccn(C)n4)c(Cl)cn3)cc2)n1 [Compound 15] :: 9
Cn1ccc(-c2cc(Nc3ccc(-n4cnc(N5CCOCC5)n4)cc3)ncc2Cl)n1 [Compound 16] :: 0.9
Cc1ccc(-c2ncn(-c3ccc(Nc4cc(-c5ccn(C)n5)c(F)cn4)cc3)n2)cn1 [Compound 20] :: 4.2
Cc1nc(C)n(-c2ccc(Nc3cc(-c4nn(C)cc4-c4ccc(F)cc4)ccn3)cc2)n1 [Compound 37] :: 6.4
Cn1ccc(-c2cc(Nc3ccc(-n4cnc(-c5ccccn5)n4)cc3)ncc2F)n1 [Compound 21] :: 4

The values you see were collected from paper PMC3081976.
